- STUDY SYSTEM: P2Y purinoceptor 2 (Homo sapiens)
- Sequence (P41231 whole entry): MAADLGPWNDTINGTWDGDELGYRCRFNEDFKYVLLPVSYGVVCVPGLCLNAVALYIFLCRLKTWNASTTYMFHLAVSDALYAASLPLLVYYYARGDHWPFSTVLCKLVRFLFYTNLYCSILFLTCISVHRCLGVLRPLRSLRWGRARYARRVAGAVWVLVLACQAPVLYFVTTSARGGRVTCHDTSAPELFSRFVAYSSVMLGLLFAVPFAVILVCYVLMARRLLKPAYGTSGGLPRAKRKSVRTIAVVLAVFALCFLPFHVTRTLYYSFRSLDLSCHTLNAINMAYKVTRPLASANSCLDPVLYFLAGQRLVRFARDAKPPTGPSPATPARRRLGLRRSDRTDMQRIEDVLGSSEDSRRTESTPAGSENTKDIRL
- TEST: Antagonist activity at human P2Y2 receptor expressed in astrocytoma cells assessed as inhibition of intracellular calcium mobilization
Provide the recorded pIC50 for the entries that follow.
# log scale: pIC50 equals minus log10 of the concentration in mol/L

Given item "Nc1c(S(=O)(=O)O)cc(Nc2ccc3cc4ccccc4cc3c2)c2c1C(=O)c1ccccc1C2=O" , the value recorded as its pIC50 is 5.00

The reported pIC50 of the molecule "Nc1c(S(=O)(=O)O)cc(Nc2ccccc2)c2c1C(=O)c1ccccc1C2=O" was 4.96

Value of pIC50 reported for the molecule "Nc1c(S(=O)(=O)O)cc(Nc2ccc(F)cc2C(=O)O)c2c1C(=O)c1ccccc1C2=O" is 4.52

// recorded pIC50 for "Nc1c(S(=O)(=O)O)cc(Nc2ccc(O)cc2)c2c1C(=O)c1ccccc1C2=O" : 5.33
